B1: POMT2 (parent)
chain: YHEAPMTRKHYQVTGYGINGTGDS

- Variants of: B1
- experimental.protocol: protein stability index of a GFP-peptide fusion (GPS, HEK-293T) (PSI 1-6); higher = more stable;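 also: lentivirally expressed fusions sorted by FACS into six bins by GFP to DsRed ratio, PSI derived from sequencing read proportions per bin multiplied by bin number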
- condition.label: c terminus: a fixed tail appended
value.type: protein stability index
// print number alone

QUERY: Endpoint output: protein stability index of YHEAPMTRKLYQVTGYGINGTGDS [H10L] . Value?
RESULT: 1.51

The measured values listed here are drawn from the supplement of paper PMC10567573.
